- Study target: Neurogenic locus notch homolog protein 2 (Homo sapiens) (UniProt Q04721)
- Sequence (Q04721 whole entry, looked up): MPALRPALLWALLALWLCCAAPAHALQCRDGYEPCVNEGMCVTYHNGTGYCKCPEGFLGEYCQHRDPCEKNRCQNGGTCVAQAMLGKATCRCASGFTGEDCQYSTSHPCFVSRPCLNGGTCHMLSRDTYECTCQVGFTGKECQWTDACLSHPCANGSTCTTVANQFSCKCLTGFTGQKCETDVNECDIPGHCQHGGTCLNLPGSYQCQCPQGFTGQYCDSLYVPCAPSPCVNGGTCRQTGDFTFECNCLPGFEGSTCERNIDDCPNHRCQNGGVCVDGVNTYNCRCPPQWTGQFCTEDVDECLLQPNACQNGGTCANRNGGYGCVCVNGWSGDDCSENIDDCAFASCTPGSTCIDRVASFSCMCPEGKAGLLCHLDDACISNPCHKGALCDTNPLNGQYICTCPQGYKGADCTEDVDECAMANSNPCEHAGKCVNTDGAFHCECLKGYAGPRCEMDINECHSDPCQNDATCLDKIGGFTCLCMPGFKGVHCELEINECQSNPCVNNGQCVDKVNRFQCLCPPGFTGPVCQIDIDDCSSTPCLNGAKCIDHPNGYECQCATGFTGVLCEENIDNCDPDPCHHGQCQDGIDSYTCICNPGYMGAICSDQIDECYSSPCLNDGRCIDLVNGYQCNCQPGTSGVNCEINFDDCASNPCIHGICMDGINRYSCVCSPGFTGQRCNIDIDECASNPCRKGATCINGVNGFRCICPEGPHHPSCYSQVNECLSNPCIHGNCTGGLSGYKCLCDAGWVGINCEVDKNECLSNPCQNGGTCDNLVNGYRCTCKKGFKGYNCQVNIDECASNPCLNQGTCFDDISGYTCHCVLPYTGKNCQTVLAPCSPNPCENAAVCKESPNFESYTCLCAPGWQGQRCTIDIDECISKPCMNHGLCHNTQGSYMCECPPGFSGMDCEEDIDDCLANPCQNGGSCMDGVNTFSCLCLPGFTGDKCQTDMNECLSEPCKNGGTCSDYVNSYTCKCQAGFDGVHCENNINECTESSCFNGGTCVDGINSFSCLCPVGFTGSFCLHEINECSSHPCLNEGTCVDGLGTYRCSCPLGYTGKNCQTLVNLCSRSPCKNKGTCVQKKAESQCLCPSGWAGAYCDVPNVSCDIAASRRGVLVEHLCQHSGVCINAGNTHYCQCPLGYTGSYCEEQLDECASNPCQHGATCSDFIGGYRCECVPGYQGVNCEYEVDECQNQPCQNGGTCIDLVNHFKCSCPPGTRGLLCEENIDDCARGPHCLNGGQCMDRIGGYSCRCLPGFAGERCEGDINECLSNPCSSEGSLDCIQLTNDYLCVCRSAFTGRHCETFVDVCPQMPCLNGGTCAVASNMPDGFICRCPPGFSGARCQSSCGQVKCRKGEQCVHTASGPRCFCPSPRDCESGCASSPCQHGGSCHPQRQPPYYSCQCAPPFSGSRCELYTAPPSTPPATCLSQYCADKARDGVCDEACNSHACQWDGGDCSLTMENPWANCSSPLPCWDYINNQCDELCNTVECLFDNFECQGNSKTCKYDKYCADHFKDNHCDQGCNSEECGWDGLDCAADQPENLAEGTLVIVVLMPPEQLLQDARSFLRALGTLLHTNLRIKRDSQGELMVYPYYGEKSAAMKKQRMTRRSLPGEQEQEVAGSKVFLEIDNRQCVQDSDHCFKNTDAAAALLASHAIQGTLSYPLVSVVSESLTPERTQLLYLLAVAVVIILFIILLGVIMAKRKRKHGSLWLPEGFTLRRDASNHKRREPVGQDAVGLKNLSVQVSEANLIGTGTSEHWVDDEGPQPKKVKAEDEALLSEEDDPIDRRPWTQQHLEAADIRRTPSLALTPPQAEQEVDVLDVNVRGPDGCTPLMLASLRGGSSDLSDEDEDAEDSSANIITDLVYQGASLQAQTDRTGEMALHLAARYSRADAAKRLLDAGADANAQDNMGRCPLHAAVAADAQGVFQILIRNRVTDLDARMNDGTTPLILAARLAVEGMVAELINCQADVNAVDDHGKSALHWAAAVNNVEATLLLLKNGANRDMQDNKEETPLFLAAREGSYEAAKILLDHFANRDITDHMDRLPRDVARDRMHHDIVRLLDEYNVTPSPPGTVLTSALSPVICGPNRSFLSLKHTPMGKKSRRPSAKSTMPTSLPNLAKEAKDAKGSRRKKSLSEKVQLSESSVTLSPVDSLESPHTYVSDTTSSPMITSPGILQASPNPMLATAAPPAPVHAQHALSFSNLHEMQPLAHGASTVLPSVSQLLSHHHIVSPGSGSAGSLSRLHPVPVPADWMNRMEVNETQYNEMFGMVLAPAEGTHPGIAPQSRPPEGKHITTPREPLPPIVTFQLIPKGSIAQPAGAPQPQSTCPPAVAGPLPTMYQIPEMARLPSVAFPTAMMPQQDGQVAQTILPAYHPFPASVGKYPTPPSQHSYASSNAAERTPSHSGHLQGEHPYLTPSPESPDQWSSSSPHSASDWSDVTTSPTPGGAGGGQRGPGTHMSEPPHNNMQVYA
- Procedure details: Notch2 binders on small-molecule microarrays, primary screen, biochemical, small-molecule microarray, 635 nm fluorescence, stem cell growth factors (AID 1073)
- Condition set: Notch2 binding, higher = more signal
Experimental endpoint: composite z-score

compound=COC(=O)CC=C[C@@H](C)[C@@H](C=NO[C@@H]1O[C@H](COC(C)=O)[C@@H](OC(C)=O)[C@H](OC(C)=O)[C@H]1OC(C)=O)NS(=O)(=O)c1ccc(C)cc1 observed_result=1.11
compound=CO[C@H]1COC(=O)[C@H](C)NC(=O)CC=C[C@@H](C)[C@H](OC)COC(=O)[C@@H](OCc2ccccc2)C=C[C@@H]1C observed_result=-0.542
compound="CCOC(=O)[C@H](CC(C)C)NC(=O)CCC1CC(OC(=O)NCCc2ccc(F)cc2)CC2(CCCC(COC(=O)NCC(c3ccccc3)c3ccccc3)O2)O1 (some centres undefined)" observed_result=0.787
compound=C[C@H](ON=C1[C@H]2CCn3c(=O)n(-c4ccccc4)c(=O)n3[C@H]2[C@H](O)[C@@H]2O[C@H]12)c1cn([C@H](CO)Cc2ccccc2)nn1 observed_result=0.862
compound=COc1cccc([C@@H]2Oc3ccc(OC)cc3C(=O)[C@H]2O)c1 observed_result=0.5
compound=C#CCCCON=C1C[C@@H](O)[C@@H](O)[C@@H]2[C@@H]3C(=O)N(CC)C(=O)[C@@H]3CC[C@@H]12 observed_result=0.656
compound=CO[C@H]1COC(=O)[C@@H](C)COC(=O)[C@H](COCc2ccccc2)NC(=O)CC=C[C@H]1C observed_result=-1.58
compound="CCOC(=O)[C@H](Cc1ccccc1)NC(=O)CCC1CC(OC(=O)NCc2cccc3ccccc23)CC2(CCCC(COC(=O)NCC(c3ccccc3)c3ccccc3)O2)O1 (some centres undefined)" observed_result=0.928
compound=CO[C@@H]1COC(=O)[C@@H](C)COC(=O)[C@@H](C)NC(=O)CC=C[C@@H]1C observed_result=0.198
compound="COc1cccc([C@H]2Oc3ccc(OC)cc3C(=NOC(C)CN3CCCCc4nc(C)c(C)cc43)[C@@H]2O)c1 (some centres undefined)" observed_result=0.0879
compound=C[C@H]1COC(=O)[C@@H]2CCCN2C(=O)[C@@H](C)COC(=O)[C@H](Cc2ccccc2)NC1=O observed_result=0.731
compound=COc1ccc(O[C@H]2C=C[C@@H](c3ccccc3)O[C@@H]2CON=CC[C@@H]2C=C[C@H](OC(C)=O)[C@@H](COC(C)=O)O2)cc1 observed_result=-0.265
compound=O=C1[C@H]2[C@H]3[C@H](O)[C@H](O)CC(=NOCc4ccccc4)[C@H]3CC[C@H]2C(=O)N1Cc1ccc2c(c1)OCO2 observed_result=0.306
compound=CO[C@@H]1COC(=O)CC=C[C@H](C)[C@H](OC)COC(=O)[C@H](C)NC(=O)CC=C[C@H]1C observed_result=-0.316
